# Tested system: LmxCLK1 (Leishmania mexicana, UniProt E9AMP2)
# Assay explanation: biochemical
# Assay type: binding
# Settings: DSF, 10 µM compound, 2 µM LmxCLK1, Run 2; read-out: ΔTm Run 2
Readout type: ΔTm at 10 µM

# Compound, Tested system, ΔTm at 10 µM
data = [
    ("CO[C@H]1C[C@@H]2CC[C@@H](C)[C@@](O)(O2)C(=O)C(=O)N2CCCC[C@H]2C(=O)O[C@H]([C@H](C)C[C@@H]2CC[C@@H](O)[C@H](OC)C2)CC(=O)[C@H](C)/C=C(\\C)[C@@H](O)[C@@H](OC)C(=O)[C@H](C)C[C@H](C)/C=C/C=C/C=C/1C [Rapamycin (Sirolimus)]", "LmxCLK1 (Leishmania mexicana, UniProt E9AMP2)", "-0.1 °C"),
    ("COc1ccc(-c2nc(N3CCOCC3)c3sc(CN(C)c4ncc(C(=O)NO)cn4)cc3n2)cn1 [CUDC-907]", "LmxCLK1 (Leishmania mexicana, UniProt E9AMP2)", "-0.2 °C"),
]

In the following, a different compound is considered.
// query # get_value(readout='ΔTm at 10 µM', item= CS(=O)(=O)N1CCc2c(-c3cnc(N)nc3)nc(N3CCOCC3)nc21 [CH5132799] )
// result 0.1 °C

----------
# Tested system: UniProt E9AMP2
# Sequence (E9AMP2 1-422): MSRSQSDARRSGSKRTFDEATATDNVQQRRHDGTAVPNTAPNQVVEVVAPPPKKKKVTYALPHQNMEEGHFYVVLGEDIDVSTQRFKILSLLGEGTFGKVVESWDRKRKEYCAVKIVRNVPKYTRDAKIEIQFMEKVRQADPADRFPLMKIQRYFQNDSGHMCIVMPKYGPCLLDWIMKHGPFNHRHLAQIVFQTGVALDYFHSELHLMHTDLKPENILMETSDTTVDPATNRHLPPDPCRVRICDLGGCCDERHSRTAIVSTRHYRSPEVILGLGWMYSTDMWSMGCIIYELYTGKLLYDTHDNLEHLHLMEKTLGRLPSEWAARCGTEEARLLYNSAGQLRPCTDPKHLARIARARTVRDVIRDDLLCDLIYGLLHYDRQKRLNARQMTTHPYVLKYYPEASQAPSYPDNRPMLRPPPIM
# Assay explanation: biochemical
# Format: binding
# Settings: DSF, 10 µM compound, 2 µM LmxCLK1, Run 1
Below, each of the compounds is paired with its reported ΔTm Run 1 value.

# Compound, ΔTm Run 1
data = [
    ("CC(C)N(CCC(=O)c1ccc2ccccc2c1)Cc1ccccc1.Cl [ZM 39923 HCl]", "0.0 °C"),
    ("N#Cc1c(NC(=O)c2cccc3ccccc23)sc2c1CCCC2 [JNK Inhibitor IX]", "0.3 °C"),
    ("C=CS(=O)(=O)NC1CCN(C(=O)CNc2cc(I)c(Cl)cc2OC)CC1 [K-Ras(G12C) inhibitor 9]", "0.3 °C"),
    ("C[C@@H](Oc1cc(-c2cnn(C3CCNCC3)c2)cnc1N)c1c(Cl)ccc(F)c1Cl [Crizotinib (PF-02341066)]", "1.4 °C"),
]

// query I have this compound here, COc1ncccc1-c1cnn2ccc(N3CCN(C(=O)OC(C)C)CC3)nc12 [LP-935509 (AAK1)] , and I need its recorded ΔTm Run 1.
// result -0.2 °C

// query Look up ΔTm Run 1 for this compound: CC(C)(C)c1cnc(CSc2cnc(NC(=O)C3CCNCC3)s2)o1 [SNS-032 (BMS-387032)]
// result 0.2 °C

// query What value of ΔTm Run 1 has been reported for the following compound? CN1CCN(c2cccc(Nc3nc4c(-c5ccc(S(C)(=O)=O)cc5)cccn4n3)c2)CC1 [CEP-33779]
// result 0.5 °C

// query ΔTm Run 1 lookup needed for Nc1ncnc2c1c(-c1cccc(OCc3ccccc3)c1)cn2C1CC(CN2CCCC2)C1 (centres unmarked) [NVP-ADW742] , thanks.
// result 0.0 °C

The reported numbers originate from paper PMC7619385.
